These entries and their values trace back to patent US8802673B2.

# Ki per entry
Molecular target: UniProt Q923Y8
Sequence (Q923Y8 whole entry): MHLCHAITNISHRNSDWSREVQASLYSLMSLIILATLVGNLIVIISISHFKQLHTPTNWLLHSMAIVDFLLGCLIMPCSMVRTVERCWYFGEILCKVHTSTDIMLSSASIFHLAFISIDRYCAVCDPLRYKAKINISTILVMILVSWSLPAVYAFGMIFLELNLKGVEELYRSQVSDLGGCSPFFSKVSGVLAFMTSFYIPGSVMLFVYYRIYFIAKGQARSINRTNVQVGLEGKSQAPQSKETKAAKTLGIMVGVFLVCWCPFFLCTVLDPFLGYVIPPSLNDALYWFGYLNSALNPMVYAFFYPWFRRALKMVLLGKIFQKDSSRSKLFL
Experiment: Radioligand binding assay on mouse TAAR1
Conditions: mouse TAAR1 (first value of the cell), HEK-293 membranes; read-out: Ki (μM) mouse/rat
Structures can show the parent of a compound that is named as a salt.
quantity.measured: Ki (µM)

>>> print(df.to_string())
                                   compound  value_units  endpoint_value
0  c1cc([C@H]2CNCCO2)ccc1Nc1ncc2c(n1)CCCC2 [Example 74]           µM          0.0059
1  CCc1cnc(Nc2ccc([C@@H]3CNCCO3)cc2F)nc1 [Example 116]           µM          0.0039
2  FC(F)Oc1cnc(Oc2cnc(Nc3ccc([C@@H]4CNCCO4)cc3Cl)nc2)nc1 [Example 175]           µM           0.006
3  FC(F)(F)c1cnc(Nc2ccc([C@@H]3CNCCO3)cc2)c(Cl)c1 [Example 185]           µM          0.0549
4  Cc1cc(C)nc(Nc2ccc(C3CCNC3)cc2)n1 (racemic) [Example 1, hydrochloride]           µM           0.074
5  CCc1cnc(Nc2ccc([C@@H]3CNCCO3)cc2)nc1 [Example 68]           µM          0.0094
6  CCc1ccc(CNc2ccc([C@H]3CNCCO3)cc2)cc1 [Example 36]           µM          0.0288
7  FC(F)(F)c1ccnc(Nc2ccc([C@@H]3CNCCO3)cc2)n1 [Example 173]           µM          0.0044
8  Clc1cc(Nc2ccc([C@H]3CNCCO3)cc2)nc2ccccc12 [Example 54]           µM          0.0008
